Biological target: BRD4 BD1 (Homo sapiens, UniProt O60885)
Test: AlphaScreen binding assay, BRD4 Bromodomain 1
pIC50: −log10 of the molar value.
Recorded pIC50 by entry

Here's what some known entries look like.
CC(=O)N1c2ccc(-c3cn(C)nc3C)cc2N(C(=O)OC(C)C)C[C@@H]1C | 6.00 to 7.00
CC(=O)N1c2ccc(-c3cnn(C4CC4)c3)cc2N(C(=O)Oc2ccc3cnccc3c2)C[C@@H]1C | 6.00 to 7.00
CC(=O)N1c2ccc(-c3ccc(S(C)(=O)=O)cc3)cc2N(C(=O)c2ccc(N)cc2)C[C@@H]1C | < 5.00

Please report pIC50 for the following compound: CC(=O)N1c2ccccc2N(S(=O)(=O)c2ccc(OC(F)(F)F)cc2)C[C@@H]1C
< 5.00

Please report pIC50 for the following compound: CC(=O)N1c2ccc(-c3ccc(NS(=O)(=O)C4CC4)cc3)cc2N(C(=O)C2CC2)C[C@@H]1C
6.00 to 7.00

Output measured pIC50 for this item: CC(C)OC(=O)N1C[C@H](C)N(C(=O)C2CC2)c2ccc(-c3ccc(CS(N)(=O)=O)cc3)cc21
6.00 to 7.00

Read the entry CC(=O)N1c2ccc(-c3ccc(S(C)(=O)=O)cc3)cc2N(C(=O)C2CCCC2)C[C@@H]1C and write its reported pIC50.
5.00 to 6.00

Identify pIC50 associated with the compound CC(=O)N1c2ccccc2N(C(=O)c2cc(C)c(C)o2)C[C@@H]1C
< 5.00

Report pIC50 for CC(=O)N1c2ccc(-c3ccc(C(=O)NCCN)cc3)cc2N(C(=O)c2ccco2)C[C@@H]1C
5.00 to 6.00

Hello, please tell me recorded pIC50 for this one: CC(C)OC(=O)N1C[C@H](C)N(C(=O)C2CC2)c2ccc(-c3cnn(CC(=O)O)c3)cc21
5.00 to 6.00

Give pIC50 for the following compound: COC(=O)N1c2ccc(-c3ccc(N4CCS(=O)(=O)CC4)cc3)cc2N(C(=O)C2CC2)C[C@@H]1C
6.00 to 7.00

Read off the recorded pIC50 for COC(=O)N1c2ccc(-c3ccc(C(=O)NCCN)cc3)cc2N(C(=O)OC(C)C)C[C@@H]1C
5.00 to 6.00

Give recorded pIC50. CCC1(COC(=O)N2C[C@H](C)N(C(C)=O)c3ccc(-c4cnn(C5COC5)c4)cc32)COC1
5.00 to 6.00

Quote pIC50 reported for COC(=O)Nc1cc2c(cc1-c1cnn(C3CC3)c1)N(C(=O)OC(C)C)C[C@H](C)N2C(C)=O please.
6.00 to 7.00

Give the value of pIC50 reported for the following: CC(=O)N1c2ccccc2N(S(=O)(=O)c2cccc(C(F)(F)F)c2)C[C@@H]1C
< 5.00
